Attribution: ChEMBL document CHEMBL1148383

- assay procedure: Tmax in liver of mice at the oral dose of 50 mg/kg
- Assay type: ADME, organism-based
- Set-up: dose 50 mg/kg, route oral
- condition set: mouse
attribute measured: Tmax
Report field: quantity (unit follows the number).

Enquiry: Fill in Tmax for record CC[C@H]1OC(=O)C[C@@H](O)[C@H](C)[C@@H](OC2OC(C)C(O)C(N(C)C)C2O)[C@@H](C/C=C/C(C)=O)C[C@@H](C)C(=O)/C=C/C(C)=C/[C@@H]1COC1OC(C)C(O)C(OC)C1OC (stereo partly specified)
Return: 2 h

====

- Tested on: Haemophilus influenzae
- assay procedure: Antibacterial activity against Haemophilus influenzae ATCC 49247
- Type: functional
In this section we review reported MIC values for a set of compounds.
Answer format: numeric, µg/mL implied, no suffix.

Enquiry: Find the measured MIC of CC[C@H]1OC(=O)C[C@@H](O)[C@H](C)[C@@H](OC2OC(C)C(OC3CC(C)(O)C(O)C(C)O3)C(N(C)C)C2O)[C@@H](CC=O)C[C@@H](C)C(=O)CCC(C)C[C@@H]1COC1OC(C)C(O)C(OC)C1OC (some centres undefined) and report it.
Return: 64
